- EXPERIMENT: self-splicing fitness, log relative to wild type (ln ratio); higher = more splicing; Tetrahymena group I intron in knt gene, E. coli kanamycin selection, DiMSum; sequences stand for … in CUCUCU…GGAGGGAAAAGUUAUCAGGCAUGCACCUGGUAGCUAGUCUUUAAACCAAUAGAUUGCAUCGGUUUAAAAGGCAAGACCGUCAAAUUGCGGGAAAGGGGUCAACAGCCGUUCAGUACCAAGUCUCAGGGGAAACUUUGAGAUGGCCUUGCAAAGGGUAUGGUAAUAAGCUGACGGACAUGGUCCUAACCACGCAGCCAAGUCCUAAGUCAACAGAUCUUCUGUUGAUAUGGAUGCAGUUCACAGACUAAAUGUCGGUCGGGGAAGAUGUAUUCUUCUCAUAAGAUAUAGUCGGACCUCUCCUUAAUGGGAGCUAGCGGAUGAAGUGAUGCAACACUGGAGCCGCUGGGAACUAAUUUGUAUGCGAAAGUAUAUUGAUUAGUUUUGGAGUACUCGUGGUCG;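 note: selection with 25 µg/mL kanamycin versus none on LB agar overnight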
- CONDITION DETAILS: 30 °C
self-splicing fitness (ln) reference
Please respond with just the number, no unit label.

SEQUENCE CHAIN | QUANTITY NAME | NUMBER
CGCAAGCAAUAUUACGGAAU | self-splicing fitness (ln) | -3.63
CCCAAGCAAUAUUACGAGGA | self-splicing fitness (ln) | -1.42
UAGGAGCAAUAUUACGUGGA | self-splicing fitness (ln) | -2.34
UACAAGCAAUAUUACGGUAG | self-splicing fitness (ln) | -2.15
GCGGAGCAAUAUUACGUUUG | self-splicing fitness (ln) | -2.86
AUUUAGCAAUAUUACGCGGU | self-splicing fitness (ln) | -2.13

Query: I have this sequence here, `AACGAGCAAUAUUACGUUUU` , and I need its recorded self-splicing fitness (ln).
Result: -3.9

Query: I have this sequence here, `UGCCAGCAAUAUUACGAAUU` , and I need its recorded self-splicing fitness (ln).
Result: -3.68

Numbers sourced from the supplement of paper PMC7877785.
